Kindly supply the reported Bp values for the records listed here.
- ASSAY PROTOCOL: Boiling point determination (Example 2)
- Type: physicochemical
- PROTOCOL CONDITIONS: Table 3, approximate physical properties
- Method: The boiling point (“BP”) of HFO-1336pyy and HFO-1336eyc were determined and the results are reported below in Table 5. The dielectric constant (“Dk”) of HFO-1336pyy and HFO-1336eyc(E) were measured, whereas the Dk of HFO*1336eyc (Z) was calculated using the Kirkwood model as described in Harvey, A. H. and Lemmon, E. W., International Journal of Thermophysics, Vol. 26, No. 1, 2005. The measured dielectric property were determined using the Agilent 85070 Dielectric Probe. […]
Give bare numbers, in °C.

Known results for molecules:
F/C(=C(/F)C(F)F)C(F)F [Compound 2, (E)-1,1,2,3,4,4-hexafluorobut-2-ene] | 51.7
F/C(=C(\F)C(F)F)C(F)F [Compound 1, (Z)-1,1,2,3,4,4-hexafluorobut-2-ene] | 58.2
F/C=C(/F)C(F)(F)C(F)F [Compound 4, (E)-1,2,3,3,4,4-hexafluorobut-1-ene] | 45.3

// moving on: another record for Bp
Record request: Bp value, item F/C=C(\F)C(F)(F)C(F)F [Compound 3, (Z)-1,2,3,3,4,4-hexafluorobut-1-ene]
40.4
